tested system: cAMP and cAMP-inhibited cGMP 3',5'-cyclic phosphodiesterase 10A (Homo sapiens, UniProt Q9Y233)
Sequence (Q9Y233 whole entry): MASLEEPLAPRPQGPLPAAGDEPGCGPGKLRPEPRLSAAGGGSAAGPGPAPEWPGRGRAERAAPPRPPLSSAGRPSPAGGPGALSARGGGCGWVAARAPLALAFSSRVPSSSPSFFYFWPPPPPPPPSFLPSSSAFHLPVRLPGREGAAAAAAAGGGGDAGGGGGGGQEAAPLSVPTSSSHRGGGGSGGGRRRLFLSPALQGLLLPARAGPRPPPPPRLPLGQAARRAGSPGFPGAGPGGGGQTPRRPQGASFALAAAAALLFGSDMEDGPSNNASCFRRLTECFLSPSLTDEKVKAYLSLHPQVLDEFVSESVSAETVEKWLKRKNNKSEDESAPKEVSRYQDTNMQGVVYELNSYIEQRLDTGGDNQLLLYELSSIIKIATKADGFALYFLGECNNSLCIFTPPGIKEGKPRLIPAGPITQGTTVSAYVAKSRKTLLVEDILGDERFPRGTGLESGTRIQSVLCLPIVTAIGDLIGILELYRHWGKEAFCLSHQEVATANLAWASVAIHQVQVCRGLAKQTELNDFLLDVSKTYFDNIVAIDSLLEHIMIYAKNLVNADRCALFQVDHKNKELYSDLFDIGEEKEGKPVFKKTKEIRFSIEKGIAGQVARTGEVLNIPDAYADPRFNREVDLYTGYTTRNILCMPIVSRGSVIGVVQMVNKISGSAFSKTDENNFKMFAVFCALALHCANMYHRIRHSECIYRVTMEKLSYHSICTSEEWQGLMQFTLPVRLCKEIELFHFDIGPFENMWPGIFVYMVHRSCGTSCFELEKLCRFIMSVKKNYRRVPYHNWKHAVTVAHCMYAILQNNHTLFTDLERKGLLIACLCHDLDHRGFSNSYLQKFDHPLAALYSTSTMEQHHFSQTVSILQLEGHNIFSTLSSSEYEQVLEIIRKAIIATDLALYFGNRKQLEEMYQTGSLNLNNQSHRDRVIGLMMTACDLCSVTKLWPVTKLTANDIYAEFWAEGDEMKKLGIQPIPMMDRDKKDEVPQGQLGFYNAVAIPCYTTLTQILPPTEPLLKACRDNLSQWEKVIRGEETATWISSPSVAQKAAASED
pIC50: −log10 of the molar value.
Binary classification by pIC50, with 8 as an inclusive lower bound for rule met; all other cases are rule not met.

In: Determine whether measured pIC50 meets or exceeds 8 for COc1cc2nncc(-c3cnc(NC(C)C)c(CO)c3)c2cc1OC
Out: rule met

In: Determine whether measured pIC50 meets or exceeds 8 for COc1cc2nncc(-c3ccc(Cl)nc3)c2cc1OC
Out: rule not met

In: Determine whether measured pIC50 meets or exceeds 8 for COc1cc2nncc(-c3ccc(OC(C)C)nc3)c2cc1OC
Out: rule not met

In: Determine whether measured pIC50 meets or exceeds 8 for COc1cc2nncc(-c3cnc(N4CCC(C)(O)CC4)c(C)c3)c2cc1OC
Out: rule met

In: Determine whether measured pIC50 meets or exceeds 8 for COc1cc2nncc(-c3ccc(NC4CCCC4)nc3)c2cc1OC
Out: rule met

In: Determine whether measured pIC50 meets or exceeds 8 for COc1cc2nncc(-c3ccc(N(C)C(C)C)nc3)c2cc1OC
Out: rule met
